Target or system Replicase polyprotein 1ab (Severe acute respiratory syndrome coronavirus 2): recorded IC50 listed per item.
experimental readout: IC50 (µM)

line notation: O=C1CC(=O)c2c(Cl)c(Cl)c(Cl)c(Cl)c21
reading unit: µM
reported: 138
--
line notation: CCCCCCCCCCCCCCCc1cccc(O)c1C(=O)O
reading unit: µM
reported: 6.8
--
line notation: COc1cc(C)c2c(=O)cc(C[C@@H](C)O)oc2c1[C@@H]1O[C@H](CO)[C@@H](O)[C@H](O)[C@H]1OC(=O)/C=C/c1ccc(O)cc1
reading unit: µM
reported: 125
--
line notation: CC(=O)Cc1cc(=O)c2c(C)cc(O)c([C@@H]3O[C@H](CO)[C@@H](O)[C@H](O)[C@H]3O)c2o1
reading unit: µM
reported: 38.9

* * *

# experimental target: Replicase polyprotein 1ab (Severe acute respiratory syndrome coronavirus 2)
# assay protocol: Inhibition of SARS-CoV-2 main protease expressed in Escherichia coli using DABCYL-KTSAVLQ1SGFRKM-E(EDANS)-NH2 peptide as substrate at 100 uM incubated for 30 mins by FRET based assay relative to control
Square brackets hold non-standard residues; d marks the D form. Peptide text beside a SMILES is read from it. * marks the point of attachment. Nle = CCCC[C@H](N)C(=O)O; Cbz = O=C(OCc1ccccc1)*
Kindly return Condition met if reported inhibition is no lower than 60%; return Condition not met if it is lower.

compound: CSCC[C@@H](C=O)NC(=O)[C@H](CC(C)C)NC(=O)[C@H](CC(C)C)NC(C)=O (Ac-Leu-Leu-Met-aldehyde)
label value: Condition met
//
compound: CCC[C@H](NC(=O)[C@@H]1[C@H]2CCC[C@H]2CN1C(=O)[C@@H](NC(=O)[C@@H](NC(=O)c1cnccn1)C1CCCCC1)C(C)(C)C)C(=O)C(=O)NC1CC1
label value: Condition met
//
compound: CC(C)(C)C1NC(=O)O[C@@H]2CCC[C@H]2OC/C=C/C(F)(F)c2nc3ccccc3nc2O[C@@H]2C[C@@H](C(=O)N[C@]3(C(=O)NS(=O)(=O)C4(C)CC4)C[C@H]3C(F)F)N(C2)C1=O (some centres not stated)
label value: Condition not met
//
compound: Cn1cc(/C=C/C(=O)c2cccc(F)c2)cc1/C=C/C(=O)NO
label value: Condition not met
//
compound: CC(NC(=O)Cc1cc(F)cc(F)c1)C(=O)NC1C(=O)N(C)c2ccccc2-c2ccccc21 (configuration not stated)
label value: Condition not met
//
compound: O=C(O)/C(S)=C/c1c[nH]c2ccc(F)cc12
label value: Condition met
//
compound: Nc1ccccc1NC(=O)c1ccc(CNc2nccc(-c3cccnc3)n2)cc1
label value: Condition met
//
compound: C=C[C@H]1C[C@]1(NC(=O)[C@@H]1C[C@@H](Oc2ncc(OC)c3ccc(Cl)cc23)CN1C(=O)[C@@H](NC(=O)OC(C)(C)C)C(C)(C)C)C(=O)NS(=O)(=O)C1CC1
label value: Condition not met
//
compound: CC(C)C[C@@H](C=O)NC(=O)[C@H](CC(C)C)NC(=O)[C@H](CC(C)C)NC(=O)OCc1ccccc1 (Cbz-Leu-Leu-Leu-aldehyde)
label value: Condition met
//
compound: CC(NC(=O)[C@H](Cc1ccccc1)NC(=O)OCc1ccccc1)C(=O)CF (some centres not stated)
label value: Condition met
//
compound: CC1=C(O)C(=O)C=C2C1=CC=C1[C@@]2(C)CC[C@@]2(C)[C@@H]3C[C@](C)(C(=O)O)CC[C@]3(C)CC[C@]12C
label value: Condition not met
//
compound: CCCC(NC(=O)C(CC(C)C)NC(=O)OCc1ccccc1)C(=O)C(=O)NCc1ccccn1 (configuration not stated)
label value: Condition met
//
compound: COc1cc(C)c2c(=O)cc(C[C@@H](C)O)oc2c1[C@@H]1O[C@H](CO)[C@@H](O)[C@H](O)[C@H]1OC(=O)/C=C/c1ccc(O)cc1
label value: Condition met
//
compound: CC(C)(C)NC(=O)N[C@H](C(=O)N1C[C@H]2[C@@H]([C@H]1C(=O)NC(CC1CCC1)C(=O)C(N)=O)C2(C)C)C(C)(C)C (some centres not stated)
label value: Condition met
//
compound: CCCCCCCCCCCCCCCc1cccc(O)c1C(=O)O
label value: Condition met
//
compound: CCCC[C@@H](C=O)NC(=O)[C@H](CC(C)C)NC(=O)[C@H](CC(C)C)NC(C)=O (Ac-Leu-Leu-[Nle]-aldehyde)
label value: Condition met
//
compound: CC(=O)Cc1cc(=O)c2c(C)cc(O)c([C@@H]3O[C@H](CO)[C@@H](O)[C@H](O)[C@H]3O)c2o1
label value: Condition met
//
compound: CCCC[C@@H](C=O)NC(=O)[C@H](CC(C)C)NC(=O)OCc1ccccc1
label value: Condition met
//
compound: CCOC(=O)C[C@H](NC(=O)[C@@H](NC(=O)[C@H](CCC(=O)OC)NC(=O)[C@H](CC(=O)OCC)NC(=O)OCc1ccccc1)C(C)C)C(=O)CF
label value: Condition met
//
compound: Cc1coc2c1C(=O)C(=O)c1c-2ccc2c1CCCC2(C)C
label value: Condition not met
//
compound: O=C1CC(=O)c2c(Cl)c(Cl)c(Cl)c(Cl)c21
label value: Condition met
//
compound: Cc1cc(C(=O)CN2CCCC2)c(C)n1-c1ccc(F)cc1
label value: Condition not met
//
compound: Cc1c(O)cccc1C(=O)N[C@@H](CSc1ccccc1)[C@H](O)CN1C[C@H]2CCCC[C@H]2C[C@H]1C(=O)NC(C)(C)C
label value: Condition not met
//
compound: CC(C)C[C@H](NC(=O)[C@H](Cc1ccccc1)C[C@@H](O)[C@H](Cc1ccccc1)NC(=O)OC(C)(C)C)C(=O)N[C@@H](Cc1ccccc1)C(N)=O
label value: Condition met

* * *

The following compounds are shown together with reported inhibition values.
# experimental target: Replicase polyprotein 1ab (Severe acute respiratory syndrome coronavirus 2) (UniProt P0DTD1)
# assay protocol: Inhibition of SARS-CoV-2 main protease expressed in Escherichia coli using DABCYL-KTSAVLQ1SGFRKM-E(EDANS)-NH2 peptide as substrate at 100 uM incubated for 30 mins by FRET based assay relative to control
experimental readout: inhibition

line notation: CC(=O)O/N=C1\C(=O)N(Cc2cc(Cl)ccc2Cl)c2ccc(Cl)cc21
reported: 61.4%
//
line notation: COc1cc(C)c2c(=O)cc(CC(C)=O)oc2c1[C@@H]1O[C@H](CO)[C@@H](O)[C@H](O)[C@H]1OC(=O)/C=C/c1ccc(O)cc1
reported: 60.5%
//
line notation: CC(=O)N[C@@H](CC(C)C)C(=O)N[C@@H](CC(C)C)C(=O)N[C@H](C=O)CCCNC(=N)N
reported: 59%
